biological target: IL-6 (Homo sapiens); construct: purchased Genzyme Corp; experiment: Activity for inhibition of binding of IL-6 to receptor by peptide (IL-6 receptor expression cells, FITC labeled anti-IL-6 antibody); settings: 5 μg of the peptide, 50 ng of IL-6, 10^5 IL-6 receptor expression cells, 4° C for one hour
No end group written: not given here.
Binding inhibition activity (%) values for the substances below.
Lab book: enter the figure in %, no units written.

WQDPHSWNSSFYRLRFELRYRAERSK [Example 93] | 59
EEETSLPGDSVTLTCPGVEPEDKG-NH2 [Example 7] | 38
DDDDDWNSSFYRLRFELRYRAERSKAAG-NH2 [Example 40] | 37

Per the records, this substance ( EEERKFQNSPAEDFQEPCQYSQESKG-NH2 [Example 23] ) has Binding inhibition activity (%) equal to 58

###

target: IL-6 (Homo sapiens); construct: purchased Genzyme Corp; assay: Activity for inhibition of binding of IL-6 to receptor by peptide (IL-6 receptor expression cells, FITC labeled anti-IL-6 antibody); conditions: 5 μg of the peptide, 50 ng of IL-6, 10^5 IL-6 receptor expression cells, 4° C for one hour
No end group written: not given here.
Below, each entry is listed with its recorded Binding inhibition activity (%).
Report the value in % with no unit label.

RKFQNSPAEDFQEPCQYSQES [Example 21] | 52

Consider the additional substance presented here.
Reported Binding inhibition activity (%) of DDDDDQDPHSWNSSFYRLRFELRYRAERSKAAG-NH2 [Example 88] : 66

###

Recorded Binding inhibition activity (%) values for a group of substances are listed next.
Molecular target: IL-6 (Homo sapiens, UniProt P05231)
Construct: purchased Genzyme Corp
Sequence (P05231 30-212): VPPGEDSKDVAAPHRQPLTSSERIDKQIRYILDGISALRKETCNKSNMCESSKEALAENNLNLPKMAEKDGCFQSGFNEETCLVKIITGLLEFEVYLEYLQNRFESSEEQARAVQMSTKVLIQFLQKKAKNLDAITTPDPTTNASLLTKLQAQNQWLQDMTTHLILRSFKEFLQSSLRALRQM
Test: Activity for inhibition of binding of IL-6 to receptor by peptide (IL-6 receptor expression cells, FITC labeled anti-IL-6 antibody)
Conditions: 5 μg of the peptide, 50 ng of IL-6, 10^5 IL-6 receptor expression cells, 4° C for one hour
Source text: A human lymphocyte fraction was obtained from human peripheral blood with Ficoll-Paque (manufactured by Pharmacia-LKB). The fraction was reacted with a cultured supernatant of Epstein-Barr Virus producing cell strain B958 to transform the human lymphocytes to obtain IL-6 receptor expression cells. […]
No end group written: not given here.
The response must be a number in % with no trailing unit.

NPRWLSVTWQDPHSK [Example 49] | 30

Entry KKNPRWLSVTWQDPHS [Example 50] ; Binding inhibition activity (%) = 25

Measured Binding inhibition activity (%), KGTVHLLVDVPPEEPQLSCFRKD-NH2 [Example 14] : 32

# substance PHSWNSSFYRLRFELRYRAERSKK [Example 65] ; its Binding inhibition activity (%) = 68

Consider KWQDPHSWNSSFYRLRFELRYRAERSKD-NH2 [Example 94] . Its measured Binding inhibition activity (%) is 63

The substance listed as KKDPHSWNSSFYRLRFELRYRAERSK [Example 74] shows Binding inhibition activity (%) equal to 70

Given item KKTSLPGDSVTLTCPGVEPED [Example 2] , the value recorded as its Binding inhibition activity (%) is 35

Lab note: measured Binding inhibition activity (%) of WQDPHSWNSSFYRLRFELRYRAERSKK [Example 89] was 68

Briefly, Binding inhibition activity (%) measured for RKFQNSPAEDFQEPCQYSQESK [Example 17] : 60

Reported Binding inhibition activity (%) for KTSLPGDSVTLTCPGVEPEDD-NH2 [Example 6] was 36

Item: QDPHSWNSSFYRLRFELRYRAERSK [Example 85] | Binding inhibition activity (%): 60

Short answer for EEEWNSSFYRLRFELRYRAERSKKG-NH2 [Example 39] : Binding inhibition activity (%) was 58

###

target: IL-6 (Homo sapiens, UniProt P05231); construct: purchased Genzyme Corp; experiment: Activity for inhibition of binding of IL-6 to receptor by peptide (IL-6 receptor expression cells, FITC labeled anti-IL-6 antibody); details: 5 μg of the peptide, 50 ng of IL-6, 10^5 IL-6 receptor expression cells, 4° C for one hour
No end group written: not given here.
Threshold check on Binding inhibition activity (%): at or above 60% gives T, strictly below gives F.

DDDDDWQDPHSWNSSFYRLRFELRYRAERSKAAG-NH2 [Example 96] | F
HSWNSSFYRLRFELRYRAERSKK [Example 57] | T

// query Assess whether reported Binding inhibition activity (%) for DPHSWNSSFYRLRFELRYRAERSK [Example 77] sits at 60% or higher.
// result F

// query For this substance, is measured Binding inhibition activity (%) 60% or higher? DDDDDNPRWLSVTWQDPHSAAG-NH2 [Example 56]
// result F

// query Evaluate EEEDPHSWNSSFYRLRFELRYRAERSKKG-NH2 [Example 79] : Binding inhibition activity (%) at minimum 60%?
// result T

// query # check: Binding inhibition activity (%) of KQDPHSWNSSFYRLRFELRYRAERSKD-NH2 [Example 86] is greater than or equal to 60%
// result F

// query Hello, I need to know if QALTTNKDDDNILFRDSA [Example 29] has measured Binding inhibition activity (%) not below 60%. Thanks!
// result F

// query Reported Binding inhibition activity (%) reaches at least 60% for DDDDDQALTTNKDDDNILFRDSAAAG-NH2 [Example 32] ?
// result F

###

biological target: IL-6 (Homo sapiens, UniProt P05231); construct: purchased Genzyme Corp; assay: Activity for inhibition of binding of IL-6 to receptor by peptide (IL-6 receptor expression cells, FITC labeled anti-IL-6 antibody); conditions: 5 μg of the peptide, 50 ng of IL-6, 10^5 IL-6 receptor expression cells, 4° C for one hour
No end group written: not given here.
Known Binding inhibition activity (%) of a selection of substances
Numeric answer only, unit % assumed.

Below: 10 substances and their reported Binding inhibition activity (%).
KNPRWLSVTWQDPHSD-NH2 [Example 54] | 28
KHSWNSSFYRLRFELRYRAERSKD-NH2 [Example 62] | 50
TSLPGDSVTLTCPGVEPED [Example 5] | 28
KKQDPHSWNSSFYRLRFELRYRAERSK [Example 82] | 70
KQALTTNKDDDNILFRDSAD-NH2 [Example 30] | 46
KKRKFQNSPAEDFQEPCQYSQES [Example 18] | 55
NPRWLSVTWQDPHS [Example 53] | 22
KKPHSWNSSFYRLRFELRYRAERSK [Example 66] | 65
DPHSWNSSFYRLRFELRYRAERSKK [Example 73] | 71
KKWNSSFYRLRFELRYRAERSK [Example 34] | 55

Per the records, this substance ( EEEWQDPHSWNSSFYRLRFELRYRAERSKKG-NH2 [Example 95] ) has Binding inhibition activity (%) equal to 65

Noted for KPHSWNSSFYRLRFELRYRAERSKD-NH2 [Example 70] : its Binding inhibition activity (%) reads 59

###

The following substances are shown together with reported Binding inhibition activity (%) values.
molecular target: IL-6 (Homo sapiens); construct: purchased Genzyme Corp; assay: Activity for inhibition of binding of IL-6 to receptor by peptide (IL-6 receptor expression cells, FITC labeled anti-IL-6 antibody); details: 5 μg of the peptide, 50 ng of IL-6, 10^5 IL-6 receptor expression cells, 4° C for one hour
No end group written: not given here.
Output spec: scalar in %, unitless text.

Record excerpt, results attached:
EEEGTVHLLVDVPPEEPQLSCFRKKG-NH2 [Example 15] | 30
KKWQDPHSWNSSFYRLRFELRYRAERSK [Example 90] | 71
GTVHLLVDVPPEEPQLSCFRK [Example 13] | 25

Note to self: Binding inhibition activity (%) recorded for HSWNSSFYRLRFELRYRAERSK [Example 61] was 45

Binding inhibition activity (%) reading for EEEQDPHSWNSSFYRLRFELRYRAERSKKG-NH2 [Example 87] : 72

In plain terms, DDDDDHSWNSSFYRLRFELRYRAERSKAAG-NH2 [Example 64] has a documented Binding inhibition activity (%) of 55

Entry under test: DDDDDDPHSWNSSFYRLRFELRYRAERSKAAG-NH2 [Example 80] . Its Binding inhibition activity (%) was 59

###

target: IL-6 (Homo sapiens, UniProt P05231); construct: purchased Genzyme Corp; assay: Activity for inhibition of binding of IL-6 to receptor by peptide (IL-6 receptor expression cells, FITC labeled anti-IL-6 antibody); settings: 5 μg of the peptide, 50 ng of IL-6, 10^5 IL-6 receptor expression cells, 4° C for one hour
No end group written: not given here.
Quick reference for Binding inhibition activity (%) among some substances
Give just the number in %; leave the unit off.

QDPHSWNSSFYRLRFELRYRAERSKK [Example 81] | 76
DDDDDGTVHLLVDVPPEEPQLSCFRKAAG-NH2 [Example 16] | 31
KKQALTTNKDDDNILFRDSA [Example 26] | 42

// substance WNSSFYRLRFELRYRAERSKK [Example 33] , assay IL-6 (Homo sapiens, UniProt P05231), Binding inhibition activity (%) value: 58

With IL-6 (Homo sapiens, UniProt P05231) as the test system, EEENPRWLSVTWQDPHSKG-NH2 [Example 55] showed Binding inhibition activity (%) of 28
